Hi there, I'd appreciate the recorded protein stability index for every entry that follows.
B1: PKD2L1 (parent)
chain: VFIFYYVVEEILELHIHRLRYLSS

Variants of: B1
Experimental details: protein stability index of a GFP-peptide fusion (GPS, HEK-293T) (PSI 1-6); higher = more stable;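 also: lentivirally expressed fusions sorted by FACS into six bins by GFP to DsRed ratio, PSI derived from sequencing read proportions per bin multiplied by bin number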
Test settings: c terminus: a fixed tail appended
Form: value (number only, do not type unit).

Q: What value of protein stability index has been recorded for this entry: I11S
A: 3.09

Q: What value of protein stability index has been recorded for this entry: V8F
A: 3.06

Q: What value of protein stability index has been recorded for this entry: S23C
A: 1.99

Q: What value of protein stability index has been recorded for this entry: L12P
A: 1.95

Q: What value of protein stability index has been recorded for this entry: H17D
A: 3
